Source listed as ChEMBL document CHEMBL4393743.

molecular target: Tubulin; assay: Inhibition of tubulin polymerization (unknown origin) by spectrophotometric method
pIC50: −log10 of the molar value.
# pIC50 annotations

compound_string	pIC50
COc1ccc(/C=C(\C)C(=O)c2cc(OC)c(OC)c(OC)c2)cc1OCCCCCCCC(=O)NO	5.30
COc1ccc(/C=C(\C)C(=O)c2cc(OC)c(OC)c(OC)c2)cc1OCCCC(=O)NO	4.26
COc1ccc(/C=C/C(=O)c2cc(OC)c(OC)c(OC)c2)cc1O	5.40
COc1ccc(/C=C/C(=O)c2cc(OC)c(OC)c(OC)c2)cc1OCCCCCCC(=O)NO	4.98

* * *

Here we list compounds with their recorded IC50 when tested on Histone deacetylase 1 (Homo sapiens, UniProt Q13547).
Sequence (Q13547 whole entry): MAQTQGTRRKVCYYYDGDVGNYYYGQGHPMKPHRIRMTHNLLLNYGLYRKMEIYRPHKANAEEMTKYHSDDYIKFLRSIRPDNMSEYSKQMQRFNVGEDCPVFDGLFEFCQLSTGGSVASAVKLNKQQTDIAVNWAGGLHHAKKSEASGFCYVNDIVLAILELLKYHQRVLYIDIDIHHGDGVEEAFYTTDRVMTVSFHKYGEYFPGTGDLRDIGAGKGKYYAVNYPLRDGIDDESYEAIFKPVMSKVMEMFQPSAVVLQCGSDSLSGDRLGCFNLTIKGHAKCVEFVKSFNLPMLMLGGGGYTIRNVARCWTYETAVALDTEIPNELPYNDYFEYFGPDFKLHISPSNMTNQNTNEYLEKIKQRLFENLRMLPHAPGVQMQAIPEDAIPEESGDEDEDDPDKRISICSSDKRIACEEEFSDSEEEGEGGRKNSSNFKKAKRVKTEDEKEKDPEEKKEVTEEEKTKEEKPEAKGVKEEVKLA

compound_string	IC50 (nM)
COc1ccc(/C=C(\C)C(=O)c2cc(OC)c(OC)c(OC)c2)cc1OCCCCCCCC(=O)NO	15.2
COc1ccc(/C=C/C(=O)c2cc(OC)c(OC)c(OC)c2)cc1OCCCCCCC(=O)NO	36.3
